# pIC50 annotations
# Test system: MKN-45
# Method notes: Antiproliferative activity against human MKN-45 cells incubated for 48 hrs by SRB assay
# Format: functional, cell-based
# Measurement parameters: MKN-45, 48 h
pIC50 is a log-scale quantity: -log10 of the concentration expressed in molar.

Molecular string	pIC50
CCc1nc(-c2ccc(OC)cc2)n(-c2cccc(C(=O)NCCCCn3nccn3)c2)n1	6.85
CCc1nc(-c2ccc(OC)nc2)n(-c2cccc(C(=O)NCCCCn3nccn3)c2)n1	5.56
CCc1ccc(-c2nc(CC)nn2-c2cccc(C(=O)NCCCCn3nccn3)c2)cc1	6.40

Problem: Query (molecule): CCc1nc(-c2ccc([N+](=O)[O-])cc2)n(-c2cccc(C(=O)NCCCCn3nccn3)c2)n1 ; field requested: pIC50
Result: 6.06

Problem: Next up: CCc1nc(-c2ccc(C)cc2)n(-c2cccc(C(=O)NCCCCn3nccn3)c2)n1
Result: 6.52
